This listing pairs compounds with measured viability, T/C.
# Tested on: NCI/ADR-RES complex spheroid viability
# measurement.description: Anticancer human tumor NCI/ADR-RES cell line growth inhibition;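 further: spheroids exposed to compounds for 7 days; 100% = DMSO vehicle treated spheroids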
# condition.details: second compound 10 µM; first compound 0.316 µM; active compounds read low
readout.kind: viability, T/C

In [3]: df
Out[3]:
                                   compound    readout_kind  value_reported
0  CC(C)c1c(-c2ccccc2)nc2c(C#N)c[nH]n2c1=O + NC1CCC(NC2CC2c2ccccc2)CC1  viability, T/C           98.6%
1  COc1ccc([C@@H](O)c2cc(-c3ncnc4cc(N5CCOCC5)ccc34)c(F)cc2Cl)nn1 + NC1CCC(NC2CC2c2ccccc2)CC1  viability, T/C           85.6%
2  O=C(C=Cn1cnc(-c2cc(C(F)(F)F)cc(C(F)(F)F)c2)n1)NNc1cnccn1 + NC1CCC(NC2CC2c2ccccc2)CC1  viability, T/C           3.07%
3  O=C(c1cc(Cc2n[nH]c(=O)c3ccccc23)ccc1F)N1CCN(C(=O)C2CC2)CC1 + NC1CCC(NC2CC2c2ccccc2)CC1  viability, T/C           93.1%
4  Nc1ncn(C2CC(O)C(CO)O2)c(=O)n1 (stereo not given) + NC1CC1c1ccc(-c2cccc(O)c2)cc1  viability, T/C           16.1%
